# target or system: MMP-1 (Homo sapiens)
# Sequence (P03956 100-469, species assumed): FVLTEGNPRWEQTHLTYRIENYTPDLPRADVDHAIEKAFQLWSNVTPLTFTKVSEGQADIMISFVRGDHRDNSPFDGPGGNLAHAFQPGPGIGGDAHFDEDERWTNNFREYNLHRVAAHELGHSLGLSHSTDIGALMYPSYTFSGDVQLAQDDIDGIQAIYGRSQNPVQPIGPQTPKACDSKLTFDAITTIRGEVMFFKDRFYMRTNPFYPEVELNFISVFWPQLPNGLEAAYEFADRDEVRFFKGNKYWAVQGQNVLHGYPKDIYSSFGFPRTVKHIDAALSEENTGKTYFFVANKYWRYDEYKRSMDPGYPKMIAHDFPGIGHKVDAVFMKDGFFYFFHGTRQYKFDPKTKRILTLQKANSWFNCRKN
# test details: MMP-1 inhibitory action (Type I collagen Activity Measurement kit, FITC-labeled collagen type I)
# Format: biochemical
# assay setup: Experimental Example 2; read-out: IC50 MMP1
assay endpoint: IC50

{"compound": "CC(C)NCC1(c2ccccc2)CC1(NS(=O)(=O)c1ccc(-c2ccc(Cl)cc2)s1)C(=O)O (stereo not shown)", "result": "≥ 10000 nM"}
{"compound": "CC1[C@H](c2ccccc2)[C@]1(NS(=O)(=O)c1ccc2nc(-c3ccccc3)[nH]c2c1)C(=O)O (stereo partly shown)", "result": "≥ 1000 nM"}
{"compound": "C[C@]1(c2ccccc2)C[C@@]1(NS(=O)(=O)c1ccc(-c2ccc3nnn(O)c3c2)s1)C(=O)O", "result": "≥ 10000 nM"}
{"compound": "CC(C)C(=O)NCC1(c2ccccc2)CC1(NS(=O)(=O)c1ccc(-c2ccc(Cl)cc2)s1)C(=O)O (stereo not shown)", "result": "≥ 10000 nM"}
{"compound": "C[C@]1(c2ccccc2)C[C@@]1(NS(=O)(=O)c1ccc(-c2ccc(C#N)cc2)s1)C(=O)O", "result": "≥ 1000 nM"}
{"compound": "CC1[C@H](c2ccccc2)[C@]1(NS(=O)(=O)c1ccc(-n2cc(C(=O)O)cn2)s1)C(=O)O (stereo partly shown)", "result": "≥ 1000 nM"}
{"compound": "CC1C(c2ccccc2)C1(NS(=O)(=O)c1ccc(-c2cccc(CO)c2)s1)C(=O)O (stereo not shown)", "result": "< 100 nM"}

* * *

# target or system: aggrecanase-1 (Homo sapiens, UniProt O75173)
# Sequence (O75173 213-837): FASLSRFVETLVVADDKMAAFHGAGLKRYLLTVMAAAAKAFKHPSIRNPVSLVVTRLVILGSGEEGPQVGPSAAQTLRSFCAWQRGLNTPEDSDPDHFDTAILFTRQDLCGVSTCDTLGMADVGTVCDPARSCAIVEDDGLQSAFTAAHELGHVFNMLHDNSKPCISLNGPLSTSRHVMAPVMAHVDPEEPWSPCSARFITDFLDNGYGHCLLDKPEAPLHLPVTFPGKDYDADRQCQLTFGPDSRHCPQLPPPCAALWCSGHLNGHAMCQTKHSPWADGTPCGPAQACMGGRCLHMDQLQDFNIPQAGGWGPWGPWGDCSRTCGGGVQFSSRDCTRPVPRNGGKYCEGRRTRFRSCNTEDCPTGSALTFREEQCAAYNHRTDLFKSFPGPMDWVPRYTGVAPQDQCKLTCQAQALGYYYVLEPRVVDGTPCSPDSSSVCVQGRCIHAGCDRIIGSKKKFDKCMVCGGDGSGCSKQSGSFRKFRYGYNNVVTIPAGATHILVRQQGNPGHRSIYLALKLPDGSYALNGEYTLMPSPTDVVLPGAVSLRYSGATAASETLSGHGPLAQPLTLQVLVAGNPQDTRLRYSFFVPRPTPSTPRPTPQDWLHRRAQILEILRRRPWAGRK
# test details: Aggrecanase-1 inhibitory action (Particle Assay, GAG release from aggrecan-containing polyacrylamide particles)
# Format: biochemical
# assay setup: Experimental Example 1; read-out: IC50 AG1
pIC50: −log10 of the molar value.
Listed below: pIC50 values for each entry.

{"compound": "CSCC1(c2ccccc2)CC1(NS(=O)(=O)c1ccc(-c2ccc(Cl)cc2)s1)C(=O)O (stereo not shown) [Example 2-432]", "target or system": "aggrecanase-1 (Homo sapiens, UniProt O75173)", "pIC50": "> 7.00"}
{"compound": "NC(=O)OCCC1(c2ccccc2)CC1(NS(=O)(=O)c1ccc(-c2ccc(Cl)cc2)s1)C(=O)O (stereo not shown) [Example 2-295]", "target or system": "aggrecanase-1 (Homo sapiens, UniProt O75173)", "pIC50": "> 7.00"}
{"compound": "O=C(O)[C@]1(NS(=O)(=O)c2ccc(-n3cc(Cl)cn3)nc2)C[C@@H]1c1ccccc1 [Example 2-554]", "target or system": "aggrecanase-1 (Homo sapiens, UniProt O75173)", "pIC50": "≤ 6.00"}
{"compound": "CC1[C@H](c2ccccc2)[C@]1(NS(=O)(=O)N1CCN(C(=O)NCc2ccccc2)CC1)C(=O)O (stereo partly shown) [Example 2-529]", "target or system": "aggrecanase-1 (Homo sapiens, UniProt O75173)", "pIC50": "≤ 6.00"}

* * *

# target or system: Recombinant Human MMP-13 (Homo sapiens, UniProt P45452)
# Construct: purchased R&D systems 511-MM
# test details: MMP-13 inhibitory activity (MMP-13 specific fluorescent substrate with quencher)
# Format: biochemical
# assay setup: Experimental Example 3; read-out: IC50 MMP13
Below, each of the compounds is paired with its reported IC50 value.

{"compound": "CC1[C@H](c2ccccc2)[C@]1(NS(=O)(=O)N1CCCN(c2ccc(F)cn2)CC1)C(=O)O (stereo partly shown)", "target or system": "Recombinant Human MMP-13 (Homo sapiens, UniProt P45452)", "IC50": "≥ 1000 nM"}
{"compound": "CCNC(=O)OCC1(c2ccccc2)CC1(NS(=O)(=O)c1ccc(-c2cc(C(F)(F)F)on2)s1)C(=O)O (stereo not shown)", "target or system": "Recombinant Human MMP-13 (Homo sapiens, UniProt P45452)", "IC50": "< 1000 nM"}
{"compound": "COCCOCC1(c2ccccc2)CC1(NS(=O)(=O)c1ccc(-c2ccc(Cl)cc2)s1)C(=O)O (stereo not shown)", "target or system": "Recombinant Human MMP-13 (Homo sapiens, UniProt P45452)", "IC50": "< 1000 nM"}
{"compound": "CC1[C@H](c2ccccc2)[C@]1(NS(=O)(=O)N1CCn2c(nc3cc(Cl)ccc32)C1)C(=O)O (stereo partly shown)", "target or system": "Recombinant Human MMP-13 (Homo sapiens, UniProt P45452)", "IC50": "< 1000 nM"}
{"compound": "O=C(Nc1ccccc1)c1ccc(S(=O)(=O)N[C@@]2(C(=O)O)C[C@@H]2c2ccccc2)cc1", "target or system": "Recombinant Human MMP-13 (Homo sapiens, UniProt P45452)", "IC50": "≥ 1000 nM"}
{"compound": "CC1[C@H](c2ccccc2)[C@]1(NS(=O)(=O)N1CCCN(c2ccc(Cl)cc2)CC1)C(=O)O (stereo partly shown)", "target or system": "Recombinant Human MMP-13 (Homo sapiens, UniProt P45452)", "IC50": "≥ 1000 nM"}
{"compound": "C[C@]1(c2ccccc2)C[C@@]1(NS(=O)(=O)c1ccc(-c2ccc(N)cc2)s1)C(=O)O", "target or system": "Recombinant Human MMP-13 (Homo sapiens, UniProt P45452)", "IC50": "≥ 1000 nM"}

* * *

# target or system: Recombinant Human MMP-13 (Homo sapiens)
# Construct: purchased R&D systems 511-MM
# test details: MMP-13 inhibitory activity (MMP-13 specific fluorescent substrate with quencher)
# Type: biochemical
# assay setup: Recombinant Human MMP-13, fluorescent substrate, 25° C. for 1 h; read-out: IC50 MMP13 (Experimental Example 3)
pIC50: −log10 of the molar value.

{"compound": "C[C@]1(c2ccccc2)C[C@@]1(NS(=O)(=O)c1ccc(-c2cc(C(F)(F)C(F)(F)F)on2)s1)C(=O)O", "target or system": "Recombinant Human MMP-13 (Homo sapiens)", "pIC50": "≤ 6.00"}
{"compound": "COC(=O)CCc1cccc(C2CC2(NS(=O)(=O)c2ccc(-c3ccc(Cl)cc3)s2)C(=O)O)c1 (stereo not drawn)", "target or system": "Recombinant Human MMP-13 (Homo sapiens)", "pIC50": "> 7.00"}
{"compound": "O=C(O)[C@]1(NS(=O)(=O)c2ccc(-c3cc(C(F)(F)F)on3)s2)C[C@@H]1c1ccccc1", "target or system": "Recombinant Human MMP-13 (Homo sapiens)", "pIC50": "> 7.00"}
{"compound": "O=C(O)COc1cccc(C2CC2(NS(=O)(=O)c2ccc(-c3ccc(Cl)cc3)cc2)C(=O)O)c1 (stereo not drawn)", "target or system": "Recombinant Human MMP-13 (Homo sapiens)", "pIC50": "> 7.00"}
{"compound": "O=C(O)[C@]1(NS(=O)(=O)/C=C/c2ccc(C(F)(F)F)cc2)C[C@@H]1c1ccccc1", "target or system": "Recombinant Human MMP-13 (Homo sapiens)", "pIC50": "≤ 6.00"}
{"compound": "O=C(O)C1(NS(=O)(=O)c2ccc(-c3cc(C(F)(F)F)on3)s2)CC1c1cccc(CCCO)c1 (stereo not drawn)", "target or system": "Recombinant Human MMP-13 (Homo sapiens)", "pIC50": "> 7.00"}
{"compound": "Cn1nc(-c2ccc(S(=O)(=O)NC3(C(=O)O)CC3c3ccccc3)s2)cc1C(F)(F)F (stereo not drawn)", "target or system": "Recombinant Human MMP-13 (Homo sapiens)", "pIC50": "> 6.00"}
{"compound": "O=C(O)C1(NS(=O)(=O)c2ccc(-c3cc(C(F)(F)F)on3)s2)CC1c1cccc(NCc2cccnc2)c1 (stereo not drawn)", "target or system": "Recombinant Human MMP-13 (Homo sapiens)", "pIC50": "> 7.00"}
{"compound": "O=C(O)C1(NS(=O)(=O)c2ccc(-c3ccc(Cl)cc3)s2)CC1c1ccccc1OCc1cccnc1 (stereo not drawn)", "target or system": "Recombinant Human MMP-13 (Homo sapiens)", "pIC50": "> 7.00"}
{"compound": "O=C(O)C1(NS(=O)(=O)c2ccc(-c3ccc(Cl)cc3)s2)CC1c1ccccc1Oc1cccnc1 (stereo not drawn)", "target or system": "Recombinant Human MMP-13 (Homo sapiens)", "pIC50": "> 6.00"}
{"compound": "O=C(O)C1(NS(=O)(=O)c2ccc(-c3ccc(Cl)cc3)s2)CC1c1cccc(NCc2cccnc2)c1 (stereo not drawn)", "target or system": "Recombinant Human MMP-13 (Homo sapiens)", "pIC50": "> 7.00"}
{"compound": "O=C(O)C1(NS(=O)(=O)c2ccc(-c3ccc(C(F)(F)F)cc3)s2)CC1c1ccccc1 (stereo not drawn)", "target or system": "Recombinant Human MMP-13 (Homo sapiens)", "pIC50": "> 6.00"}
{"compound": "CN(Cc1cccnc1)c1cccc(C2CC2(NS(=O)(=O)c2ccc(-c3ccc(Cl)cc3)s2)C(=O)O)c1 (stereo not drawn)", "target or system": "Recombinant Human MMP-13 (Homo sapiens)", "pIC50": "> 7.00"}
{"compound": "O=C(O)C1(NS(=O)(=O)c2ccc(-c3ccc(Cl)cc3)s2)CC1c1ccc(CO)cc1 (stereo not drawn)", "target or system": "Recombinant Human MMP-13 (Homo sapiens)", "pIC50": "> 6.00"}
{"compound": "O=C(O)CCc1cccc(C2CC2(NS(=O)(=O)c2ccc(-c3ccc(Cl)cc3)s2)C(=O)O)c1 (stereo not drawn)", "target or system": "Recombinant Human MMP-13 (Homo sapiens)", "pIC50": "> 7.00"}

The measured values listed here are drawn from patent US20080261994A1.
